- Test system: TgDHFR (Toxoplasma gondii, UniProt Q07422, DEL43-70)
- Sequence (Q07422 71-250, added parts left off, stated change not applied): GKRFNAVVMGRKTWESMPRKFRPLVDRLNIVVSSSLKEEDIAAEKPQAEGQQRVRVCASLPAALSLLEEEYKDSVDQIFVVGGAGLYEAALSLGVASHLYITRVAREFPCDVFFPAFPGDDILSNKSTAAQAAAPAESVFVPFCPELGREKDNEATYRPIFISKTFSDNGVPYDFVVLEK
- Assay info: TgDHFR enzyme inhibition assay
- Assay type: biochemical
- Experimental setup: read-out: IC50 against TgDHFR

Compound	IC50
COc1cc([C@@H](C)C#Cc2c(C)nc(N)nc2N)cc(OC)c1OC (racemic)	< 100 µM

====

// MIC (Cg) lookup, one value per entry
- System: C. glabrata
- Assay info: Antifungal assay (MIC, Alamar Blue)
- Type: cell-based, Candida glabrata
- Experimental setup: C. glabrata, YM media
Quantity measured: MIC (Cg) (µg/mL)

Compound	Units label	Assay result
CCc1nc(N)nc(N)c1C#CC(C)c1cc(OC)cc(N2CCOCC2)c1 (stereo not drawn) [Compound 153]	µg/mL	12
COc1cc(C(C)C#Cc2c(C)nc(N)nc2N)cc(N2C[C@@H](C)O[C@@H](C)C2)c1 (mixture of isomers) [Compound 156]	µg/mL	6.3
CCc1nc(N)nc(N)c1C#CC(C)c1cc(OC)cc(N2C[C@@H](C)O[C@@H](C)C2)c1 (mixture of isomers) [Compound 157]	µg/mL	13
COc1cc(-c2ccc(C)cc2)cc([C@@H](C)C#Cc2c(C)nc(N)nc2N)c1 [Compound 141]	µg/mL	1.5
COc1cc(C(C)C#Cc2c(C)nc(N)nc2N)cc(N2CCOCC2)c1 (stereo not drawn) [Compound 152]	µg/mL	12

Sourced from patent US8853228B2
